All values here come from ChEMBL document CHEMBL5113378.

target: Telomerase reverse transcriptase (Homo sapiens, UniProt O14746); assay: Inhibition of telomerase derived from human K562 cell extract incubated for 30 mins by TRAP assay; format: cell-free
Sequence (O14746 whole entry): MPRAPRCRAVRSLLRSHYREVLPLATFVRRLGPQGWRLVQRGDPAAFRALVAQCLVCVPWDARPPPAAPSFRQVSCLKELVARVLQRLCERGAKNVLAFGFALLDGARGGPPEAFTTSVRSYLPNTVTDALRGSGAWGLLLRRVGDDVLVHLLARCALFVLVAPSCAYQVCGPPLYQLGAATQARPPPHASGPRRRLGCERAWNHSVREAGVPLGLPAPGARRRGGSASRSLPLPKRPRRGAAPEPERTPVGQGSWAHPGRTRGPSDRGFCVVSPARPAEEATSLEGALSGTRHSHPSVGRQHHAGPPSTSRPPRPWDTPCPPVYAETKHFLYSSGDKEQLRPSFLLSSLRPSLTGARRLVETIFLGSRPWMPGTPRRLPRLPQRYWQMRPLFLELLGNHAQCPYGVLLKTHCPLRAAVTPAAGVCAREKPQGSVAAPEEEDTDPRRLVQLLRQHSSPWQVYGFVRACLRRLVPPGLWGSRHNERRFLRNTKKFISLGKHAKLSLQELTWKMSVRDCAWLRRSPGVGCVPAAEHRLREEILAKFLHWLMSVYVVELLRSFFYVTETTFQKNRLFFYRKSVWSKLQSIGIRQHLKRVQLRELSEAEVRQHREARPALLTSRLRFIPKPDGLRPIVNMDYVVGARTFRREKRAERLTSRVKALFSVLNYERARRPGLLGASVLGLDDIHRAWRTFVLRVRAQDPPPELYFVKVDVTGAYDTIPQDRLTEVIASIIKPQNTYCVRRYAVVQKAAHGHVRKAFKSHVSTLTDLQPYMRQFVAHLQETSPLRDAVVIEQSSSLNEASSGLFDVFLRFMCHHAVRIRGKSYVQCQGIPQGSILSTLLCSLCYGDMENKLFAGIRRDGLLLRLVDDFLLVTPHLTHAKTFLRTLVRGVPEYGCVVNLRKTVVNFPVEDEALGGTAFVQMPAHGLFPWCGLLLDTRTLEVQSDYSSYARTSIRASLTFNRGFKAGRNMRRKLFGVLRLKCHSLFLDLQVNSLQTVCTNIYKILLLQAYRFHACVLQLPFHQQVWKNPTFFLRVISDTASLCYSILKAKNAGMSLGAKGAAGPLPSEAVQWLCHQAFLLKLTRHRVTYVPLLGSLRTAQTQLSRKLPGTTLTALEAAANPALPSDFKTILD
experimental-readout: IC50 (nM)

| compound | test-target | experimental-readout | units-text | qual | test-value |
| --- | --- | --- | --- | --- | --- |
| OCCNc1c2ccccc2nc2c1[nH]c1ccccc12 | Telomerase reverse transcriptase (Homo sapiens, UniProt O14746) | IC50 | nM | = | 2350 |
| c1ccc2nc3c(cc2c1)[nH]c1ccccc13 [QUINDOLINE] | Telomerase reverse transcriptase (Homo sapiens, UniProt O14746) | IC50 | nM | > | 138000 |
| CN(C)CCNc1c2ccccc2nc2c1[nH]c1ccccc12 | Telomerase reverse transcriptase (Homo sapiens, UniProt O14746) | IC50 | nM | = | 1120 |
| c1ccc2c(NCCN3CCOCC3)c3[nH]c4ccccc4c3nc2c1 | Telomerase reverse transcriptase (Homo sapiens, UniProt O14746) | IC50 | nM | = | 550 |
| OCCCNc1c2ccccc2nc2c1[nH]c1ccccc12 | Telomerase reverse transcriptase (Homo sapiens, UniProt O14746) | IC50 | nM | = | 1550 |

###

Form field: IC50 (one value per entry).
test system: A549; experiment: Antiproliferative activity against human A549 cells assessed as cell growth inhibition; format: functional, cell-based
experimental-readout: IC50 (nM)

| compound | test-value |
| --- | --- |
| C[n+]1c2ccccc2cc2[n-]c3ccccc3c21 [CRYPTOLEPINE] | 1050 |
| CCCCNc1c2ccccc2[n+](C)c2c1[nH]c1ccccc12 | 470 |

###

tested on: Hemozoin; assay: Inhibition of detergent-mediated beta-hematin formation incubated for 6 hrs by multiwell plate reader analysis

| smiles-input | units-text | IC50 |
| --- | --- | --- |
| O=C(NCCN1CCCCC1)c1c2cc(Br)ccc2nc2c1[nH]c1ccccc12 | µM | 840 |

###

biological target: DNA; assay: Binding affinity to DNA (unknown origin) assessed as DNA intercalation by measuring amount of methyl green by spectrophotometry
experimental-readout: IC50 (µM)

| molecule | test-value |
| --- | --- |
| Cn1c2nc3ccccc3c-2cc2ccccc21 [NEOCRYPTOLEPINE] | 93 |

###

experiment: Selectivity index, ratio of CC50 for rat L6 cells to IC50 for Plasmodium falciparum K1 […]; assay type: toxicity, cell-based; settings: read-out: Ratio CC50/IC50

| molecule | selectivity ratio |
| --- | --- |
| Cn1cc2c3ccccc3nc-2c2ccccc21 [ISOCRYPTOLEPINE] | 1.8 |

###

test system: Plasmodium falciparum; assay: Antimalarial activity against chloroquine/mefloquine resistant Plasmodium falciparum clinical isolates assessed as parasite growth inhibition incubated for 24 hrs by microtechnique method; format: functional, organism-based
pIC50: −log10 of the molar value.

| smiles-input | pIC50 |
| --- | --- |
| COc1cc2c(cc1CN(C)CCCN(C)C)[nH]c1c3ccc(Cl)cc3ncc21 | 9.72 |
| COc1ccc2[nH]c3c4ccc(Cl)cc4ncc3c2c1 | 8.70 |

###

test: Selectivity index, ratio of CC50 for human Huh-7 cells to IC50 for Plasmodium falciparum 3D7; format: toxicity; details: read-out: Ratio CC50/IC50

| smiles-input | selectivity ratio |
| --- | --- |
| O=C(NCCN1CCCCC1)c1c2cc(Br)ccc2nc2c1[nH]c1ccccc12 | 46.9 |
